# test-protocol: Stability study for Fesoterodine Fumarate (description, water by KF, related substances by HPLC on storage)
# Assay type: physicochemical
# condition-summary: 1 Month 40° C. ± 2° C./RH 75% ± 5%; PSD: D(90) = 270 microns
metric-name: Related substance iv) Any individual impurities (%)
Report as a plain number; the unit % is understood.

Query string: Data request, read-out Related substance iv) Any individual impurities, for CC(C)C(=O)Oc1ccc(CO)cc1[C@H](CCN(C(C)C)C(C)C)c1ccccc1.O=C(O)/C=C/C(=O)O [Fesoterodine Fumarate]
Result string: 0.06

----------
# test-protocol: Stability study for Fesoterodine Fumarate (description, water by KF, related substances by HPLC on storage)
# Type: physicochemical
# condition-summary: Initial; PSD: D(90) = 270 microns
# Experimental: As used herein, the term “stable fesoterodine fumarate” fesoterodine fumarate containing any individual impurities less than 0.15% after exposure to a relative humidity of 60% at 25° for a period of at least three months or after exposure to a relative humidity of 75% at 40° for a period of at least three months 2) High Performance Liquid Chromatography (HPLC) Method for Determination of Impurity X in Fesoterodine Fumarate of formula (1) […]
metric-name: Related substance ii) Diester (%)
Report as a plain number; the unit % is understood.

Query string: Data request, read-out Related substance ii) Diester, for CC(C)C(=O)Oc1ccc(CO)cc1[C@H](CCN(C(C)C)C(C)C)c1ccccc1.O=C(O)/C=C/C(=O)O [Fesoterodine Fumarate]
Result string: 0.05

----------
# test-protocol: Stability study for Fesoterodine Fumarate (description, water by KF, related substances by HPLC on storage)
# Format: physicochemical
# condition-summary: 3 Months 25° C. ± 2° C./RH 60% ± 5%; PSD: D(90) = 270 microns
metric-name: Related substance i) Diol (%)
Report as a plain number; the unit % is understood.

Query string: Data request, read-out Related substance i) Diol, for CC(C)C(=O)Oc1ccc(CO)cc1[C@H](CCN(C(C)C)C(C)C)c1ccccc1.O=C(O)/C=C/C(=O)O [Fesoterodine Fumarate]
Result string: 0.06

----------
# test-protocol: Stability study for Fesoterodine Fumarate (description, water by KF, related substances by HPLC on storage)
# Type: physicochemical
# condition-summary: Initial; PSD: D(90) = 270 microns
metric-name: Related substance iv) Any individual impurities (%)
Report as a plain number; the unit % is understood.

Query string: Data request, read-out Related substance iv) Any individual impurities, for CC(C)C(=O)Oc1ccc(CO)cc1[C@H](CCN(C(C)C)C(C)C)c1ccccc1.O=C(O)/C=C/C(=O)O [Fesoterodine Fumarate]
Result string: 0.02

----------
# test-protocol: Stability study for Fesoterodine Fumarate (description, water by KF, related substances by HPLC on storage)
# Type: physicochemical
# condition-summary: 3 Months 40° C. ± 2° C./RH 75% ± 5%; PSD: D(90) = 270 microns
# Protocol: As used herein, the term “stable fesoterodine fumarate” fesoterodine fumarate containing any individual impurities less than 0.15% after exposure to a relative humidity of 60% at 25° for a period of at least three months or after exposure to a relative humidity of 75% at 40° for a period of at least three months 2) High Performance Liquid Chromatography (HPLC) Method for Determination of Impurity X in Fesoterodine Fumarate of formula (1) […]
metric-name: Related substance iii) Oxidized (RRT 1.37) (%)
Report as a plain number; the unit % is understood.

Query string: Data request, read-out Related substance iii) Oxidized (RRT 1.37), for CC(C)C(=O)Oc1ccc(CO)cc1[C@H](CCN(C(C)C)C(C)C)c1ccccc1.O=C(O)/C=C/C(=O)O [Fesoterodine Fumarate]
Result string: 0.06
